Assay: recombinant barcode read abundance after kanamycin selection (control-corrected) (log10(CPM+1)); higher = more efficient recombination; sequences stand for … in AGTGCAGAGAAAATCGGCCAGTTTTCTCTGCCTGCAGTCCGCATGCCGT…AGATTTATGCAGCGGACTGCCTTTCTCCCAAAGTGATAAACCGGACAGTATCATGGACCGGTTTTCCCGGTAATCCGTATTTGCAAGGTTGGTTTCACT; site = the 11-nt target;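 further: IS621 recombinase and bridge RNA in Escherichia coli cells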
reportedEndpoint: recombinant barcode read abundance (log10)

- residueSequence: "TAAAAGTCTTGGGTTCTAACCTGTTGCCT (site TAAAAGACTAG)"
  measurement: 0.108
- residueSequence: "CTCTGGACTTGGGTTCTAACCTGTTGCTT (site CTCTTGACTAA)"
  measurement: 0.0289
- residueSequence: "GTCAAACCTTGGGTTCTAACCTGTTGCTT (site GTCAAACCTAA)"
  measurement: 0.46
- residueSequence: "GTGAACTCTTGGGTTCTAACCTGTTGCTG (site GTGATCCCTCA)"
  measurement: 0.0703
- residueSequence: "TAGTGCTCTTGGGTTCTAACCTGTTGCCT (site TAGTGCTCTTG)"
  measurement: 0.178
- residueSequence: "TGTCCACCTTGGGTTCTAACCTGTTGCCT (site TGTCCACCTAG)"
  measurement: 0.623
- residueSequence: "GTCGTCTCTTGGGTTCTAACCTGTTGCCT (site GTCGTCACTAG)"
  measurement: 0.0143
- residueSequence: "CCAGTAGCTTGGGTTCTAACCTGTTGCCT (site CCAGCAGCTAG)"
  measurement: 0.161
- residueSequence: "CACGCTCCTTGGGTTCTAACCTGTTGCGT (site ACTTGAGCTCT)"
  measurement: 0.119
- residueSequence: "TAAAAGTCTTGGGTTCTAACCTGTTGCCT (site TAAAAGCCTAG)"
  measurement: 0.0186
- residueSequence: "AGGTCCGCTTGGGTTCTAACCTGTTGCTA (site AGGTCCGCTTA)"
  measurement: 1.4
- residueSequence: "ACGTAATCTTGGGTTCTAACCTGTTGCTT (site CGGTAATCTAA)"
  measurement: 0.246
- residueSequence: "ACCCTGGCTTGGGTTCTAACCTGTTGCCT (site ACTCTGGCTAG)"
  measurement: 0.205
- residueSequence: "GCGTATCCTTGGGTTCTAACCTGTTGCCT (site GCGGATCCTAG)"
  measurement: 0.23
- residueSequence: "GTCTCTACTTGGGTTCTAACCTGTTGCCT (site GTCTCTACTAG)"
  measurement: 0.221
- residueSequence: "GACGATCCTTGGGTTCTAACCTGTTGCCT (site GGCGATCCTAG)"
  measurement: 0.255
- residueSequence: "TCCCATCCTTGGGTTCTAACCTGTTGCCT (site TCCCATACTAG)"
  measurement: 0.0689
- residueSequence: "GCACCAACTTGGGTTCTAACCTGTTGCCT (site GCACCAACTAG)"
  measurement: 1.12
- residueSequence: "CCTGACTCTTGGGTTCTAACCTGTTGCCT (site CCTGAGTCTAG)"
  measurement: 0.0146
- residueSequence: "ACTCTAGCTTGGGTTCTAACCTGTTGCTC (site ACTCTAGCTGA)"
  measurement: 1.05
- residueSequence: "TGCCTGCCTTGGGTTCTAACCTGTTGCAG (site ATAGAATCTGA)"
  measurement: 0.245
- residueSequence: "CATCCTACTTGGGTTCTAACCTGTTGCGG (site CATCCTACTCC)"
  measurement: 1.98
- residueSequence: "TCTCAGGCTTGGGTTCTAACCTGTTGCAG (site TATCAGACTCT)"
  measurement: 0.0549
- residueSequence: "TTACGCGCTTGGGTTCTAACCTGTTGCGG (site TTACGGGCTCC)"
  measurement: 0.0728
- residueSequence: "TATGTACCTTGGGTTCTAACCTGTTGCCT (site AATGTACCTAG)"
  measurement: 0.052
- residueSequence: "GTCGTCCCTTGGGTTCTAACCTGTTGCCT (site GTCGTCGCTAG)"
  measurement: 0.0602
- residueSequence: "AGGTCCGCTTGGGTTCTAACCTGTTGCTA (site CACCAGCCTAT)"
  measurement: 0.026
- residueSequence: "AATGGGGCTTGGGTTCTAACCTGTTGCAG (site AATGGGGCTCT)"
  measurement: 2.51
- residueSequence: "GCCCGTGCTTGGGTTCTAACCTGTTGCCT (site GCACGTGCTAG)"
  measurement: 0.377
- residueSequence: "CTTCAAGCTTGGGTTCTAACCTGTTGCCT (site CTGCAAGCTAG)"
  measurement: 0.197
- residueSequence: "CAGATCCCTTGGGTTCTAACCTGTTGCCT (site CTGATCCCTAG)"
  measurement: 0.0156
- residueSequence: "TAGTATCCTTGGGTTCTAACCTGTTGCCA (site TAGTATCCTTG)"
  measurement: 0.146
- residueSequence: "TATGTGGCTTGGGTTCTAACCTGTTGCCT (site TATGTGGCTAG)"
  measurement: 0.179
- residueSequence: "GACATACCTTGGGTTCTAACCTGTTGCCT (site GACATACCTAG)"
  measurement: 0.794
- residueSequence: "CAACCGACTTGGGTTCTAACCTGTTGCCT (site CAACCGGCTAG)"
  measurement: 0.0866
- residueSequence: "CTACGCACTTGGGTTCTAACCTGTTGCTG (site CTACGTACTCA)"
  measurement: 0.156
- residueSequence: "AGGCTGACTTGGGTTCTAACCTGTTGCCT (site AGGCTGCCTAG)"
  measurement: 0.0128
- residueSequence: "ACTCTGTCTTGGGTTCTAACCTGTTGCTT (site ACTCTGTCTAA)"
  measurement: 1.86
- residueSequence: "ATCTAAACTTGGGTTCTAACCTGTTGCCT (site CGAGTCCCTCT)"
  measurement: 0.105
- residueSequence: "GATCGATCTTGGGTTCTAACCTGTTGCCT (site GATCGATCTAT)"
  measurement: 0.0541
- residueSequence: "GCGGACGCTTGGGTTCTAACCTGTTGCCT (site GCGGACGCTAG)"
  measurement: 1.72
- residueSequence: "TATGTAGCTTGGGTTCTAACCTGTTGCCA (site TATGTAGCTAG)"
  measurement: 0.22

meta.source: the supplement of paper PMC11208160
